Provide the reported koff of each item.
Target: T1, extracellular domain (ECD) of recombinant human Sortilin with a C-terminal HIS tag (ECD-huSortilin-HIS) (human, UniProt Q99523 78-755)
T1 construct: Bought (R&D Systems); also called human sortilin-ECD
T1 sequence: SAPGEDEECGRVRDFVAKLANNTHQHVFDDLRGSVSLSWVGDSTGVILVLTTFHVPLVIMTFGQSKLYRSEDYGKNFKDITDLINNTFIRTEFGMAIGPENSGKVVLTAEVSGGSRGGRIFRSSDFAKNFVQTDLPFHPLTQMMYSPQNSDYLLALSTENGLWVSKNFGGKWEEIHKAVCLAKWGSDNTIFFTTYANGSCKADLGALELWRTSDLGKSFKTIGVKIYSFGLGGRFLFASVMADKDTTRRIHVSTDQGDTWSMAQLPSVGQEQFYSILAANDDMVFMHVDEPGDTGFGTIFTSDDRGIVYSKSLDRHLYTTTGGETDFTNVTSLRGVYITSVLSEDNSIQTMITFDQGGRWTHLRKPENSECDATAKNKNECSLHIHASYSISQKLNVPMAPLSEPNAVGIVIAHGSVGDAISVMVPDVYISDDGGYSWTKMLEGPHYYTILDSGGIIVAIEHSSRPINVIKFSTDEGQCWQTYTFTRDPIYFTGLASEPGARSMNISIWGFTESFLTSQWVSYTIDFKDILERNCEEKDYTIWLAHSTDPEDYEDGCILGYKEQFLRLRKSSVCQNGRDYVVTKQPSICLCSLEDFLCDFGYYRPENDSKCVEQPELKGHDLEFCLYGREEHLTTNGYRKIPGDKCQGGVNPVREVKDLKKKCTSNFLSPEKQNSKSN
Assay: SPR (Biacore T200), mAb captured on anti-human chip, sortilin as analyte, global 1:1 fit
Answers are plain numbers, in s⁻¹.

State its koff for this binder: chimeric 5E20 (antibody, human IgG1, kappa, L234A L235A, V domains shown) VH: EVQLVESGGDLVKPGGSLKLSCAAPGFTFSTYGMSWVRQTPDKRLEWVAIISSGGSYTYYSDTVKGRFTISRDNAKNTLYLQMSSLKSEDTAMYYCSRSSSHWYFDVWGTGTTVTVSS VL: DILMTQSPSSMSVSLGDTVSITCHASQGISSNIGWLQQKPGKSFKGLIYHGTNLKDGVPSRFSGSGSGADFSLTISSLESEDFADYFCVQYAQFPYTFGGGTKLEIKR 0.000396

For chimeric 11M14 (antibody, human IgG1, kappa, L234A L235A, V domains shown) VH: EVQLVESGGDLVKPGGSLKLSCAASGFTFNIYGMSWVRQTPDKRLEWVATISSGGIYTYYPDILKGRFTISRDNAKNTLYLQMSSLKSEDTAMYYCARHPGGAMDYWGQGTSVTVSS VL: DIQMTQSPASLSVSVGETVTITCRVSENIYSNLAWYQQKQGKSPHLLVYAATNLADGVPSRFSGSGSGTQYSLKINSLQSEDFGSYYCQHFWGTPPWTFGGGTKLEIKR , write its koff. 0.000969

Provide measured koff value, entry: hu8H24VHv2/hu8H24VLv2 (antibody, V domains shown, Humanized variable regions; also called 8H24H2L2) VH: QAQLVQSGAEVVKPGSSVKVSCKASGYTFTSYSMHWVRQAPGQGLEWIGAIYPGNDATSYNQKFKGRATLTVDKSTSTAYMELSSLRSEDTAVYFCAREGYYGSSFEAWFASWGQGTTVTVSS VL: DVVMTQTPSSLPVTPGEPASISCRSSQSIVHSNGNTYLEWYLQKPGQSPQLLIYKVSNRFSGVPDRFSGSGSGTDFTLTISRVEAEDVGVYYCFQGSHVLPTFGGGTKVEIK 0.0025

More entries:
Return koff (reported value) for this binder: hu8H24VHv2/hu8H24VLv1 (antibody, V domains shown, Humanized variable regions; also called 8H24H2L1) VH: QAQLVQSGAEVVKPGSSVKVSCKASGYTFTSYSMHWVRQAPGQGLEWIGAIYPGNDATSYNQKFKGRATLTVDKSTSTAYMELSSLRSEDTAVYFCAREGYYGSSFEAWFASWGQGTTVTVSS VL: DVVMTQTPLSLPVTPGEPASISCRSSQSIVHSNGNTYLEWYLQKPGQSPQLLIYKVSNRFSGVPDRFSGSGSGTDFTLKISRVEAEDVGVYYCFQGSHVLPTFGGGTKVEIK 0.00257

From: patent US20230348588A1
